# System under test: T1, human IgG1 Fc (human, UniProt P01857-1 104-330 = IgG part, limits assumed)
# T1 construct: domain: Fc; also called Fc domain of human IgG1
# Assay name: SPR: chimeric antibody captured by anti-mouse antibody on CM5 chip, human IgG1 Fc injected
Recorded endpoint: binding result

RF61 chimeric antibody variant R50D Y34F LC, S62P L95N D100cE M100eF HC (mouse IgG2a constant domains) (antibody, V domains shown, Round 3 variant, one of the eight; copies: 2 + 2) VH: QLQLQESGPGLVKPSETLSLTCTVSGGSISRGSHYWGWIRQPPGKGLEWIGSIYYSGNTYFNPPLKSRVTISVDTSKNQFSLKLSSVTAADTAVYYCARNGPDDYTLEGFDVWGQGTTVTVSS VL: QSVLTQPPSASGTPGQRVTISCSGSSSNIGSNYVFWYQQLPGTAPKLLIYDNNQRPSGVPDRFSGSKSGTSASLAISGLRSEDEADYYCATWDDSLSAVIFGGGTKLTVL
binds
RF61 chimeric antibody variant R50N LC, L95N D99H T100aA HC (mouse IgG2a constant domains) (antibody, V domains shown, Round 3 variant, one of the eight; copies: 2 + 2) VH: QLQLQESGPGLVKPSETLSLTCTVSGGSISRGSHYWGWIRQPPGKGLEWIGSIYYSGNTYFNPSLKSRVTISVDTSKNQFSLKLSSVTAADTAVYYCARNGPDHYALDGMDVWGQGTTVTVSS VL: QSVLTQPPSASGTPGQRVTISCSGSSSNIGSNYVYWYQQLPGTAPKLLIYNNNQRPSGVPDRFSGSKSGTSASLAISGLRSEDEADYYCATWDDSLSAVIFGGGTKLTVL
binds
RF61 chimeric antibody variant R50N Y34F LC, S62P D99H D100cE M100eF HC (mouse IgG2a constant domains) (antibody, V domains shown, Round 3 variant, one of the eight; copies: 2 + 2) VH: QLQLQESGPGLVKPSETLSLTCTVSGGSISRGSHYWGWIRQPPGKGLEWIGSIYYSGNTYFNPPLKSRVTISVDTSKNQFSLKLSSVTAADTAVYYCARLGPDHYTLEGFDVWGQGTTVTVSS VL: QSVLTQPPSASGTPGQRVTISCSGSSSNIGSNYVFWYQQLPGTAPKLLIYNNNQRPSGVPDRFSGSKSGTSASLAISGLRSEDEADYYCATWDDSLSAVIFGGGTKLTVL
binds
